Target: recombinantly expressed human PARP-1 enzyme (Homo sapiens, UniProt P09874)
Sequence (P09874 whole entry): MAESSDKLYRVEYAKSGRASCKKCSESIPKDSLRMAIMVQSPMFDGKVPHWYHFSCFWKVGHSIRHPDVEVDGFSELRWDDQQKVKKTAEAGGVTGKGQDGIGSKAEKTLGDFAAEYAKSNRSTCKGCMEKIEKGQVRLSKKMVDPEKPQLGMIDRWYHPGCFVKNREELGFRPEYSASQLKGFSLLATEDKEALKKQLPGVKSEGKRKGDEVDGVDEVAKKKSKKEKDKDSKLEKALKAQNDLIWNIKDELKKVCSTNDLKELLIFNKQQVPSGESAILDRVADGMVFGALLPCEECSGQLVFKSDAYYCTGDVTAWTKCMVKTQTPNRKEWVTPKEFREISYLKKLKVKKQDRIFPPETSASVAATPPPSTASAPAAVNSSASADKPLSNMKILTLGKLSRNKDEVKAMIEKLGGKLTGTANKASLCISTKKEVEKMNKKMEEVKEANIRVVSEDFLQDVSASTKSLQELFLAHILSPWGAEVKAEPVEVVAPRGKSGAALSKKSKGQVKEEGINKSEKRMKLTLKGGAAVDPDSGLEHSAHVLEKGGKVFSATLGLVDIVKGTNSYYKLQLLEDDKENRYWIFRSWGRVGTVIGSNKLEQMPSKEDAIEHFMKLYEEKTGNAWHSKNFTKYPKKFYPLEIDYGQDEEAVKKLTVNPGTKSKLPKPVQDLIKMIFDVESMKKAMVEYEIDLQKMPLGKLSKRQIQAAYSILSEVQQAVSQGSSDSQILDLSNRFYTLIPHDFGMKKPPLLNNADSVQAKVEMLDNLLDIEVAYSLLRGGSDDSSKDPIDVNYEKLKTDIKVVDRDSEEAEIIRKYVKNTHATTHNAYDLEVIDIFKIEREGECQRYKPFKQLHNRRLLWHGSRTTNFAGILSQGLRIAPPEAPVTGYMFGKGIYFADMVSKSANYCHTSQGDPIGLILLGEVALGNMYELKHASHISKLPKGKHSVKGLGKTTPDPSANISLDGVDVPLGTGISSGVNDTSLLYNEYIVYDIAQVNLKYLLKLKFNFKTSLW
Assay: PARP enzyme assay (half-maximum inhibitor concentration)
Conditions: DNA-activated PARP-1, 200 μM NAD, tritium-labeled NAD incorporation, room temperature, 1 hour, pH 8.0
Outcome Measure: pIC50
Quick note: pIC50 values are minus log10 of concentrations in mol/L.

Below are worked cases with known answers.
COc1cccc(S(=O)(=O)NCc2ccc(-c3c[nH]c(=O)c4c3CCCC4)o2)c1 [Example 86] = 5.61
Cn1ccnc1CN(Cc1ccccc1)Cc1ccc(-c2c[nH]c(=O)c3c2CCCC3)o1 [Example 69] = 5.56
CCCCNCc1ccc(-c2c[nH]c(=O)c3c2CCCC3)o1 [Example 78] = 6.60
Cc1[nH]c(=O)c2c(c1-c1ccc(CNCc3ccccc3)o1)CCCC2 [Example 51] = 6.23
Cc1cnc(CNC(=O)c2cncc(-c3c[nH]c(=O)c4c3CCCC4)c2)cn1 [Example 39] = 5.23
O=c1[nH]cc(-c2ccc(CNCc3cccnc3)o2)c2c1CCCC2 [Example 59] = 6.00
CN(Cc1ccncc1)C(=O)c1cncc(-c2c[nH]c(=O)c3c2CCCC3)c1 [Example 38] = 5.50
O=c1[nH]cc(-c2ccc(CNCCN3CCCC3)o2)c2c1CCCC2 [Example 57] = 6.38

Task: Returns the measured pIC50 for the input molecule. Input: O=c1[nH]cc(-c2ccc(CNCc3ccncc3)o2)c2c1CCCC2 [Example 58]
Output: 5.90

Task: What do you have for O=c1[nH]cc(-c2ccc(CN3CCCC3)o2)c2c1CCCC2 [Example 61] ?
Output: 6.96

Task: What do you have for CS(=O)(=O)c1ccc(CNC(=O)c2cncc(-c3c[nH]c(=O)c4c3CCCC4)c2)cc1 [Example 42] ?
Output: 5.99

Task: What do you have for CCCCNC(=O)c1cccc(Nc2c[nH]c(=O)c3c2CCCC3)c1 [Example 20] ?
Output: 5.89

Task: What do you have for O=C(NCCc1cccnc1)c1cncc(-c2c[nH]c(=O)c3c2CCCC3)c1 [Example 40] ?
Output: 5.33

====

Measured pEC50, listed per entry.
Test system: rat cardiomyocytes (H9c2 cell line)
Assay: ATP consumption assay in cardiomyoblasts
Format: cell-based
Conditions: H9c2 cells, 15 min preincubation, 300 μM H2O2 for 1 hour, cellular ATP content by luciferase reaction
Quick note: pEC50 values are minus log10 of concentrations in mol/L.

Below are worked cases with known answers.
Cc1[nH]c(=O)c2c(c1-c1ccc(CO)o1)CCCC2 = 5.80
O=c1[nH]cc(-c2ccc(CNCC(O)c3ccccc3)o2)c2c1CCCC2 (centres unmarked) = 6.42
CCCCNCc1ccc(-c2c[nH]c(=O)c3c2CCCC3)o1 = 6.28
CC(=O)c1cccc(Nc2c(C)[nH]c(=O)c3c2CCCC3)c1 = 6.70

Attention now shifts to the item below.
Task: Returns the measured pEC50 for the input compound. Input: `Cc1[nH]c(=O)c2c(c1-c1ccc(CN3CCCC3)o1)CCCC2`
Output: 6.48

====

Target: recombinantly expressed human PARP-1 enzyme (Homo sapiens, UniProt P09874)
Assay: PARP enzyme assay (half-maximum inhibitor concentration)
Conditions: DNA-activated PARP-1, 200 μM NAD, tritium-labeled NAD incorporation, room temperature, 1 hour, pH 8.0
Measured log10 of IC50, listed per entry.
Each number you see is log10 of IC50, and the unit inside the log is nM.

O=C(NCc1ccc(-c2c[nH]c(=O)c3c2CCCC3)o1)c1cccnc1 [Example 84] = 2.90
Cc1[nH]c(=O)c2c(c1Nc1cccc(C(=O)N(C)C)c1)CCCC2 [Example 13] = 1.90
O=C1OCc2ccc(Nc3c[nH]c(=O)c4c3CCCC4)cc21 [Example 10] = 3.16
O=C(NCc1ccncc1)c1cncc(-c2c[nH]c(=O)c3c2CCCC3)c1 [Example 48] = 3.49

Task: Could you share what log10 of IC50 was measured for CC(=O)Nc1cccc(Nc2c[nH]c(=O)c3c2CCCC3)c1 [Example 5] , tested on recombinantly expressed human PARP-1 enzyme (Homo sapiens, UniProt P09874)?
Output: 2.59

Task: What do you have for COc1cccc(CNC(=O)c2cncc(-c3c[nH]c(=O)c4c3CCCC4)c2)c1OC [Example 47] ?
Output: 3.52
